# System: PPARa:RXRa (NR concentration 270 nM, RXRa partner concentration 90 nM)
# ASSAY_SUMMARY: PBM binding z-score (relative to random genomic background probes); higher = stronger binding; sequences stand for … in GC…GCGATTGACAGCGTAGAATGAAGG
Given measured PBM binding z-score, output yes (1) if it is greater than or equal to 2 and no (0) if not.

Examples from the recorded data:
RECORD_SEQUENCE: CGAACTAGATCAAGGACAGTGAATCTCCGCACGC
GROUP: no (0)

RECORD_SEQUENCE: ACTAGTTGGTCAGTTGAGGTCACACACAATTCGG
GROUP: yes (1)

RECORD_SEQUENCE: TCTATTAGTTGAAGGACAACCGACGAGTCCGTTT
GROUP: no (0)

Q) Entry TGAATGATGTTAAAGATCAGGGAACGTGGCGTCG : is its PBM binding z-score no less than 2?
A) no (0)

Q) Entry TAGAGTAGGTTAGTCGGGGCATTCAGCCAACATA : is its PBM binding z-score no less than 2?
A) no (0)

Q) Entry TCTGCTAGGTCAGTTGGTCAGCGAACGAGCTGCC : is its PBM binding z-score no less than 2?
A) no (0)

Q) Entry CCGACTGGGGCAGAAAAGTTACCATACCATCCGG : is its PBM binding z-score no less than 2?
A) no (0)

Q) Entry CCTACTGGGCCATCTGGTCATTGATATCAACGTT : is its PBM binding z-score no less than 2?
A) no (0)

Q) Entry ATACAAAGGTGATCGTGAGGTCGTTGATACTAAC : is its PBM binding z-score no less than 2?
A) yes (1)

----------
# Tested on: PXR homodimer (NR concentration 270 nM)
# ASSAY_SUMMARY: PBM binding z-score (relative to random genomic background probes); higher = stronger binding; sequences stand for … in GC…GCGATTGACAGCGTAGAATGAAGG
MEASURED_PARAMETER: PBM binding z-score

RECORD_SEQUENCE: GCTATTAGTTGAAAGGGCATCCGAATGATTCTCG
PBM binding z-score: 0.374
--
RECORD_SEQUENCE: TCTGCTAGGTCAACGACGGTCAGCTAATCTGCTA
PBM binding z-score: -0.714
--
RECORD_SEQUENCE: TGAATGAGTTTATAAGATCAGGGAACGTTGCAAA
PBM binding z-score: 0.318
--
RECORD_SEQUENCE: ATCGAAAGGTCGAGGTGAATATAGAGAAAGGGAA
PBM binding z-score: 0.39
--
RECORD_SEQUENCE: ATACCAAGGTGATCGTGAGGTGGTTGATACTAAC
PBM binding z-score: 0.167

Q) Look up PBM binding z-score: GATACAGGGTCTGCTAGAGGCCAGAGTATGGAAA
A) -0.558

----------
# Tested on: PPARg DBDmut:RXRa IVT, anti-PPARg (DBD mutation: PPARg1 K132A/R137A, NR concentration 270 nM, RXRa partner concentration 90 nM)
# ASSAY_SUMMARY: PBM binding z-score (relative to random genomic background probes); higher = stronger binding; sequences stand for … in GC…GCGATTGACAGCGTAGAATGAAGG
MEASURED_PARAMETER: PBM binding z-score
// no unit string in output, number only

Worked set:
RECORD_SEQUENCE: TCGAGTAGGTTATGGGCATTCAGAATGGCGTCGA
ASSAY_VALUE: -0.529
//
RECORD_SEQUENCE: CCTAGCATGCCAATCTGGGTCACTCAAGGCTTGA
ASSAY_VALUE: 0.133
//
RECORD_SEQUENCE: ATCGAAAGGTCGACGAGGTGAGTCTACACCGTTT
ASSAY_VALUE: 1.28

Q) Look up PBM binding z-score: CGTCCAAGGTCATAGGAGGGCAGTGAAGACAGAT
A) 1.14

Q) Look up PBM binding z-score: GATACCGGGTCAGCTAGAGGCCAGAGTATGGAAA
A) -0.62

Q) Look up PBM binding z-score: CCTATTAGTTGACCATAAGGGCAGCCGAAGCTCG
A) -0.234

Q) Look up PBM binding z-score: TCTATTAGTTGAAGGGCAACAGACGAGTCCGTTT
A) 0.759

Q) Look up PBM binding z-score: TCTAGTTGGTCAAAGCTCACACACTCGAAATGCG
A) 0.492

Q) Look up PBM binding z-score: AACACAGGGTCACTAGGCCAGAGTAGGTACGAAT
A) 3.43

Q) Look up PBM binding z-score: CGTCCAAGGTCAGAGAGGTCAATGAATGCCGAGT
A) -0.295

Q) Look up PBM binding z-score: TCATATAGTTAAATGCTAGGTGAAAGTCCGATCT
A) 0.746

Q) Look up PBM binding z-score: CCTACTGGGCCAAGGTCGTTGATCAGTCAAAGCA
A) -1.53

Q) Look up PBM binding z-score: GGAACGAGGGCAAAGTTGATAGGATCTGTCGACG
A) 0.474

Q) Look up PBM binding z-score: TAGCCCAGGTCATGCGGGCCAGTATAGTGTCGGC
A) -0.0508

Q) Look up PBM binding z-score: CCTACTGGGCCAAAAAGGTCTTTGATGCCGATAA
A) -0.719

Q) Look up PBM binding z-score: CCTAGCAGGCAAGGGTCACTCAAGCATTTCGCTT
A) -1.27

Q) Look up PBM binding z-score: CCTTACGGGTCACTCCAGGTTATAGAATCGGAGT
A) 1.31

Q) Look up PBM binding z-score: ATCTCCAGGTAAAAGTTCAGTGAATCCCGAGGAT
A) 1.68

Q) Look up PBM binding z-score: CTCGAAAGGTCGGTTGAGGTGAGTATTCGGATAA
A) -0.267

Q) Look up PBM binding z-score: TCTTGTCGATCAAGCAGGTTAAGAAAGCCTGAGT
A) -0.395

----------
# Tested on: PPARg DBDmut:RXRa IVT, anti-PPARg (DBD mutation: PPARg1 K132A/R137A, NR concentration 270 nM, RXRa partner concentration 90 nM)
# ASSAY_SUMMARY: PBM binding z-score (relative to random genomic background probes); higher = stronger binding; sequences stand for … in GC…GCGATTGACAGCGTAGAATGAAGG
Given measured PBM binding z-score, output Satisfied if it is greater than or equal to -0.08 and Not satisfied if not.

Examples from the recorded data:
RECORD_SEQUENCE: CCGACTGGGGCAAAGGTAACCATACTCAGTACGA
GROUP: Not satisfied

RECORD_SEQUENCE: TGTCAAAGTTCAAAGGTACCGTAAGTATCCACAC
GROUP: Satisfied

RECORD_SEQUENCE: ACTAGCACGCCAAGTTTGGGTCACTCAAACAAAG
GROUP: Not satisfied

RECORD_SEQUENCE: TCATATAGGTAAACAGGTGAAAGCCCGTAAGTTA
GROUP: Satisfied

RECORD_SEQUENCE: GCGACTGGGGCATCAGCCGGTTACCATAACTTAA
GROUP: Not satisfied

Q) Entry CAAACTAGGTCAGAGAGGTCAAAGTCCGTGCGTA : is its PBM binding z-score no less than -0.08?
A) Satisfied

Q) Entry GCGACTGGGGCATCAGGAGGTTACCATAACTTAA : is its PBM binding z-score no less than -0.08?
A) Not satisfied

Q) Entry TCATATAGGTAAACCGGTGAAAGTCCGTAAGTTA : is its PBM binding z-score no less than -0.08?
A) Satisfied

Q) Entry CGTCCAAGGTCAGAGAGGTAAGTGAATGCCGAGT : is its PBM binding z-score no less than -0.08?
A) Not satisfied

Q) Entry CGTCCAAGGTCAGCAGGTCAGTGGAAGCGACGTG : is its PBM binding z-score no less than -0.08?
A) Not satisfied

Q) Entry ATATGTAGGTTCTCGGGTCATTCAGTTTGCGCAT : is its PBM binding z-score no less than -0.08?
A) Satisfied

Q) Entry AGAATGAGATTATACGTAGATCAGGGAAGAAAGT : is its PBM binding z-score no less than -0.08?
A) Satisfied

Q) Entry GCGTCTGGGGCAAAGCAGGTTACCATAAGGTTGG : is its PBM binding z-score no less than -0.08?
A) Not satisfied

Q) Entry CGTCCAAGGTCAGAGAAGTCAGTGAATGCCGAGT : is its PBM binding z-score no less than -0.08?
A) Not satisfied

Q) Entry TCTTGTATATCAAAGGTTAAGAAAGCCGAAGCCT : is its PBM binding z-score no less than -0.08?
A) Satisfied

Q) Entry CCAGACACGTGAGAAGGTAACTCAGCCTCGATTA : is its PBM binding z-score no less than -0.08?
A) Not satisfied

Q) Entry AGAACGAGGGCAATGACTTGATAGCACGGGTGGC : is its PBM binding z-score no less than -0.08?
A) Satisfied

Q) Entry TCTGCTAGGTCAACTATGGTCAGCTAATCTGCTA : is its PBM binding z-score no less than -0.08?
A) Satisfied

Q) Entry TCTTGTAGATTAGCAGGTTAAGAAAGCTGGCCAA : is its PBM binding z-score no less than -0.08?
A) Not satisfied

Q) Entry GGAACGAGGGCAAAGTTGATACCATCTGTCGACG : is its PBM binding z-score no less than -0.08?
A) Satisfied

Q) Entry GCTAGTTGGTCAGTAAAAGGTCTCACACCGGTCG : is its PBM binding z-score no less than -0.08?
A) Satisfied

Q) Entry CCGAGTTGGTTATGGGGCATTCAGGCAACGGTGA : is its PBM binding z-score no less than -0.08?
A) Not satisfied

Q) Entry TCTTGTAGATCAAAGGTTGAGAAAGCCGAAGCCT : is its PBM binding z-score no less than -0.08?
A) Satisfied

Where these numbers come from: the supplement of paper PMC6555819
